# Tested on: blood of patients with T-ALL
# Measurement Notes: Hemogram of blood of patients with T-ALL after exposure
# Type: cell-based
# Condition Parameters: 10 µg/ml, 3 hours, 37.0°C
Measure Name: Promyelocytes

Known results for molecules:
COc1cccc2c1C(=O)c1c(O)c3c(c(O)c1C2=O)C[C@@](O)(C(=O)CO)C[C@@H]3O[C@H]1C[C@H](N)[C@H](O)[C@H](C)O1 [Doxorubicin, doxorubicin, reference compound] : 0,0±0,0%
COc1cc2c(cc1OC)C(c1cc3c(cc1Cl)OCO3)NCC2 (stereo not shown) : 0,0±0,000%
COc1cc2c(cc1OC)C(c1cc3c(cc1Br)OCO3)NCC2 (stereo not shown) : 0,0±0,0%

Value lookup for Promyelocytes; key = Nc1ccn([C@@H]2O[C@H](CO)[C@@H](O)[C@@H]2O)c(=O)n1 [Cytosar, cytarabine, reference compound]
0,0±0,000%
